Assay: Single dose PK profile in Colon-26 tumor bearing mice
Assay type: in vivo
Conditions: female, mouse, po, 100 mg/kg; tumor; 100 mpk p.o.; 2nd of two values in cell; read-out: Tmax
Experimental: Female mice (either athymic BALC/c nude, or BALB/c mice) were inoculated with a single subcutaneous injection of 0.1 ml of mouse Colon-26 cell suspension (1×10^5 cells per animal) in the right flank region. […]

Compound	Result units	Tmax
CNS(=O)(=O)Nc1cccc(Cc2c(CN(C)C)c3ccc(OC(=O)N(C)C)cc3oc2=O)c1F [Compound A]	h	1

====

test: Microsome Stability (% remaining @1 hour); settings: CD-1 Mouse; 2 μM
// values below are reported Microsome stability, % Remaining @1 hour

Compound	Microsome stability, % Remaining @1 hour
CNS(=O)(=O)Nc1cccc(Cc2c(CN(C)C)c3ccc(OC(=O)N(C)C)cc3oc2=O)c1F	54.3%
CNS(=O)(=O)Nc1nccc(Cc2c(C)c3ccc(Oc4ncccn4)cc3oc2=O)c1F [Reference 2]	96.0%
CNS(=O)(=O)Nc1cccc(Cc2c(C)c3ccc(OC(=O)N(C)C)cc3oc2=O)c1F [Reference 7]	29.6%
Cn1cnc2c(F)c(Nc3ccc(Br)cc3Cl)c(C(=O)NOCCO)cc21 [Reference 1, Selumetinib]	13.9%

====

assay: Plasma Stability (% remaining @2 hour); assay type: in vitro ADME; settings: Human; 2 μM
Plasma stability, % Remaining @2 hour: recorded values
Reported property: Plasma stability, % Remaining @2 hour (%)

Molecule	Reported property	Data value
CC(C)[N+](C)(CCOC(=O)C1c2ccccc2Oc2ccccc21)C(C)C	Plasma stability, % Remaining @2 hour	5.7
Cn1cnc2c(F)c(Nc3ccc(Br)cc3Cl)c(C(=O)NOCCO)cc21 [Reference 1, Selumetinib]	Plasma stability, % Remaining @2 hour	98.1
CC[C@H](C)C(=O)O[C@H]1C[C@@H](C)C=C2C=C[C@H](C)[C@H](CC[C@@H]3C[C@@H](O)CC(=O)O3)[C@H]21	Plasma stability, % Remaining @2 hour	81.8
CNS(=O)(=O)Nc1nccc(Cc2c(C)c3ccc(Oc4ncccn4)cc3oc2=O)c1F [Reference 2]	Plasma stability, % Remaining @2 hour	91.1
CNS(=O)(=O)Nc1cccc(Cc2c(C)c3ccc(OC(=O)N(C)C)cc3oc2=O)c1F [Reference 7]	Plasma stability, % Remaining @2 hour	88.1
CNS(=O)(=O)Nc1cccc(Cc2c(CN(C)C)c3ccc(OC(=O)N(C)C)cc3oc2=O)c1F	Plasma stability, % Remaining @2 hour	95.1

====

assay: Microsome Stability (% remaining @1 hour); assay type: in vitro ADME; details: Human; 2 μM
Listed next: entries and their corresponding Microsome stability, % Remaining @1 hour.

Compound	Microsome stability, % Remaining @1 hour
CNS(=O)(=O)Nc1nccc(Cc2c(C)c3ccc(Oc4ncccn4)cc3oc2=O)c1F [Reference 2]	107.1%
CNS(=O)(=O)Nc1cccc(Cc2c(C)c3ccc(OC(=O)N(C)C)cc3oc2=O)c1F [Reference 7]	61.1%
CNS(=O)(=O)Nc1cccc(Cc2c(CN(C)C)c3ccc(OC(=O)N(C)C)cc3oc2=O)c1F	51.7%
Cn1cnc2c(F)c(Nc3ccc(Br)cc3Cl)c(C(=O)NOCCO)cc21 [Reference 1, Selumetinib]	75.8%

====

experiment: Single dose PK profile in Colon-26 tumor bearing mice; format: in vivo; conditions: female, mouse, po, 25 mg/kg; plasma; 25 mpk p.o.; 2nd of two values in cell

Structure smiles string	bioavailability, %
CNS(=O)(=O)Nc1cccc(Cc2c(CN(C)C)c3ccc(OC(=O)N(C)C)cc3oc2=O)c1F	47

====

Experiment: Single dose PK profile in Colon-26 tumor bearing mice
Type: in vivo
Details: female, mouse, po, 100 mg/kg; tumor; 100 mpk p.o.; 2nd of two values in cell; read-out: AUC0-t
Experimental: Female mice (either athymic BALC/c nude, or BALB/c mice) were inoculated with a single subcutaneous injection of 0.1 ml of mouse Colon-26 cell suspension (1×10^5 cells per animal) in the right flank region. […]

Structure smiles string	AUC(0-t) / ng·h/mL
CNS(=O)(=O)Nc1cccc(Cc2c(CN(C)C)c3ccc(OC(=O)N(C)C)cc3oc2=O)c1F	36900

====

test: Caco-2 permeability; details: human

Molecule	Result units	Papp B→A at 2 h, 10 μM
CNS(=O)(=O)Nc1cccc(Cc2c(C)c3ccc(OC(=O)N(C)C)cc3oc2=O)c1F [Reference 7]	×10⁻⁶ cm/s	10

====

assay: Single dose PK profile in Colon-26 tumor bearing mice; assay type: in vivo; conditions: female, mouse, po, 100 mg/kg; plasma; 100 mpk p.o.; 2nd of two values in cell
Reported property: half-life

Structure smiles string	Reported property	Data value
CNS(=O)(=O)Nc1cccc(Cc2c(CN(C)C)c3ccc(OC(=O)N(C)C)cc3oc2=O)c1F	half-life	1.38 h

====

experiment: Single dose PK profile in Colon-26 tumor bearing mice; type: in vivo; settings: female, mouse, po, 100 mg/kg; tumor; 100 mpk p.o.; 2nd of two values in cell
Reported property: bioavailability (%)

Structure smiles string	Result units	Data value
CNS(=O)(=O)Nc1cccc(Cc2c(CN(C)C)c3ccc(OC(=O)N(C)C)cc3oc2=O)c1F	%	111

====

assay: eLogD (lipophilicity; pH=7.4); type: physicochemical
Reported property: chromatographic logD

Compound	Reported property	Data value
CNS(=O)(=O)Nc1cccc(Cc2c(CN(C)C)c3ccc(OC(=O)N(C)C)cc3oc2=O)c1F [Compound A]	chromatographic logD	3

====

molecular target: CYP450 3A4 (Homo sapiens, UniProt P08684); experiment: CYP450 Panel; assay type: in vitro ADME; conditions: 10 μM; substrate testosterone
Sequence (P08684 whole entry): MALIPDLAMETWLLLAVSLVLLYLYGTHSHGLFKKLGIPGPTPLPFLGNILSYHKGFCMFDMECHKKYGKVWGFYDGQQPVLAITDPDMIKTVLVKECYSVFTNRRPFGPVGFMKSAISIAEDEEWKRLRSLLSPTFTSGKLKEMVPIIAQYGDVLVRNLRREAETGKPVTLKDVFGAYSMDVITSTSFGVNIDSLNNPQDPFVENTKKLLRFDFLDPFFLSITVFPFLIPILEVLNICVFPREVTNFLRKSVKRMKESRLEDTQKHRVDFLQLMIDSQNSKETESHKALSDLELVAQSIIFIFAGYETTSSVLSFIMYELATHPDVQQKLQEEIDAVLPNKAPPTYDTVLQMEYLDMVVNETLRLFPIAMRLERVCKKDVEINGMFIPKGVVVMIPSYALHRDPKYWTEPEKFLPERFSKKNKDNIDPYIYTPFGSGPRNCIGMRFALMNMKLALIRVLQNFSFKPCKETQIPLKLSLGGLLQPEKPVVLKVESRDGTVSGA
Readings of CYP450 Panel 3A4 (testosterone) for the listed compounds
Reported property: CYP450 Panel 3A4 (testosterone) (%)

Compound	Data value
CNS(=O)(=O)Nc1cccc(Cc2c(CN(C)C)c3ccc(OC(=O)N(C)C)cc3oc2=O)c1F [Compound A]	26.8
CNS(=O)(=O)Nc1cccc(Cc2c(C)c3ccc(OC(=O)N(C)C)cc3oc2=O)c1F [Reference 7]	59.7
CNS(=O)(=O)Nc1nccc(Cc2c(C)c3ccc(Oc4ncccn4)cc3oc2=O)c1F [Reference 2]	15.7
Cn1cnc2c(F)c(Nc3ccc(Br)cc3Cl)c(C(=O)NOCCO)cc21 [Reference 1, Selumetinib]	21.4

====

assay: Caco-2 permeability; details: human
Reported property: efflux ratio at 2 h, 10 μM

Compound	Reported property	Data value
CNS(=O)(=O)Nc1cccc(Cc2c(C)c3ccc(OC(=O)N(C)C)cc3oc2=O)c1F [Reference 7]	efflux ratio at 2 h, 10 μM	0.695

====

test: Single dose PK profile in Colon-26 tumor bearing mice; type: in vivo; details: female, mouse, po, 25 mg/kg; tumor; 25 mpk p.o.; 2nd of two values in cell
Reported property: bioavailability (%)

Compound	Result units	Data value
CNS(=O)(=O)Nc1cccc(Cc2c(CN(C)C)c3ccc(OC(=O)N(C)C)cc3oc2=O)c1F [Compound A]	%	42

====

assay: Caco-2 permeability; settings: human
Reported property: Papp A→B at 2 h, 10 μM

Compound	Data value
CNS(=O)(=O)Nc1cccc(Cc2c(C)c3ccc(OC(=O)N(C)C)cc3oc2=O)c1F [Reference 7]	14.4 ×10⁻⁶ cm/s

====

system: pERK in CT26 KRAS^G12D; test: IC50 for pERK in 2D grown cell lines (Table 3); assay type: cell-based; details: Mus musculus, CT26 KRAS^G12D murine colon carcinoma
pIC50: −log10 of the molar value.
Reported property: pIC50

Structure smiles string	Data value
CNS(=O)(=O)Nc1cccc(Cc2c(CN(C)C)c3ccc(OC(=O)N(C)C)cc3oc2=O)c1F	7.33

====

Catalogue of Plasma stability, % Remaining @2 hour values
experiment: Plasma Stability (% remaining @2 hour); type: in vitro ADME; settings: Beagle Dog; 2 μM
Reported property: Plasma stability, % Remaining @2 hour (%)

Molecule	Data value
CNS(=O)(=O)Nc1cccc(Cc2c(CN(C)C)c3ccc(OC(=O)N(C)C)cc3oc2=O)c1F [Compound A]	96.8
CC(C)[N+](C)(CCOC(=O)C1c2ccccc2Oc2ccccc21)C(C)C [Propantheline]	58.4
CNS(=O)(=O)Nc1nccc(Cc2c(C)c3ccc(Oc4ncccn4)cc3oc2=O)c1F [Reference 2]	99.8
Cn1cnc2c(F)c(Nc3ccc(Br)cc3Cl)c(C(=O)NOCCO)cc21 [Reference 1, Selumetinib]	100.4
CNS(=O)(=O)Nc1cccc(Cc2c(C)c3ccc(OC(=O)N(C)C)cc3oc2=O)c1F [Reference 7]	99.8
CC[C@H](C)C(=O)O[C@H]1C[C@@H](C)C=C2C=C[C@H](C)[C@H](CC[C@@H]3C[C@@H](O)CC(=O)O3)[C@H]21 [Lovastatin]	94.1

====

Experiment: Single dose PK profile in Colon-26 tumor bearing mice
Type: in vivo
Details: female, mouse, po, 25 mg/kg; tumor; 25 mpk p.o.; 2nd of two values in cell; read-out: AUC0-t
Method: Female mice (either athymic BALC/c nude, or BALB/c mice) were inoculated with a single subcutaneous injection of 0.1 ml of mouse Colon-26 cell suspension (1×10^5 cells per animal) in the right flank region. […]

Structure smiles string	AUC(0-t), ng·h/mL
CNS(=O)(=O)Nc1cccc(Cc2c(CN(C)C)c3ccc(OC(=O)N(C)C)cc3oc2=O)c1F	3460
